- assayMethodText: Quantitative High-Throughput drug screen in 47 multiple myeloma cell lines against the NCATS MIPE library collection: XG6_PLB cell viability assay (AID 1919865); note: nearly all actives have a fitted effect of over 40% in size
- measurementContext: XG6 myeloma viability, CellTiter-Glo ATP luminescence, 48 h; series mostly up to 45.8 µM
- From the text: PI: Beverly A. Mock Ph.D. Laboratory of Cancer Biology and Genetics, Center for Cancer Research, National Cancer Institute, National Institute of Health, Bethesda, Maryland […] 5; Detector; 425V; Luminescence; Viewlux PerkinElmer. […] 1. […] Briefly, the corresponding myeloma cell lines were screened in 1,536-well plates with 500 cells, 5-uL per well for inhibition of cell viability (assessed by measuring ATP levels with CellTiterGlo). […]
Results filed as inconclusive are left out. Active and inactive are the calls of the source. Calls come from the whole dose curve; as a rule, active = well fitted cell-killing curve with a large enough effect; inconclusive = small, poorly fitted or top-dose-only effect, or effect the other way; inactive = no such curve, though single readings can be large or run the other way.
The reply should be one of these categories: true for active, false for inactive

Each compound tested received a call. Report the one for Cc1ccc(S(=O)(=O)Nc2nc3ccccc3nc2Nc2ccc3nsnc3c2)cc1 .
true

Each compound tested received a call. Report the one for O=C(O)C1=CC(O)C(O)[C@H](O)C1 (stereo partly drawn) .
false

Each compound tested received a call. Report the one for CC[C@H](C)n1cc(C)c2c(C(=O)NCc3c(C)cc(C)[nH]c3=O)cc(-c3ccc(N4CCNCC4)nc3)cc21 .
true

Each compound tested received a call. Report the one for CN(C)CC[C@H](CSc1ccccc1)Nc1ccc(S(=O)(=O)NC(=O)c2ccc(N3CCN(Cc4ccccc4-c4ccc(Cl)cc4)CC3)cc2)cc1[N+](=O)[O-] .
true

Each compound tested received a call. Report the one for CC=C(C(=CC)c1ccc(O)cc1)c1ccc(O)cc1 .
true

Each compound tested received a call. Report the one for CC[C@H](NC(=O)[C@H](C)NC)C(=O)N1C[C@@H](O)C[C@H]1Cc1c(-c2[nH]c3cc(F)ccc3c2C[C@H]2C[C@H](O)CN2C(=O)[C@H](CC)NC(=O)[C@H](C)NC)[nH]c2cc(F)ccc12 .
true

Each compound tested received a call. Report the one for O=C(Nc1ccccc1)Nc1ccc(-c2ccc(C(=O)[C@H]3CCC[C@H]3C(=O)O)cc2)cc1 .
true

Each compound tested received a call. Report the one for Cc1ccccc1C(C(=O)NC1CCCCC1)N(C(=O)CNc1ccc(C#N)cc1)c1cccc(F)c1 (stereo not drawn) .
false

Each compound tested received a call. Report the one for O=c1[nH]c(=O)n([C@H]2C[C@@H](O)[C@@H](CO)O2)cc1I .
false

Each compound tested received a call. Report the one for COc1ccc2cc1Oc1ccc(cc1)C[C@H]1c3cc(c(OC)cc3CCN1C)Oc1c(OC)c(OC)cc3c1[C@H](C2)N(C)CC3 .
true

Each compound tested received a call. Report the one for COc1ccc(-c2oc3c(CC=C(C)C)c(O)cc(O)c3c(=O)c2O)cc1 .
true

Each compound tested received a call. Report the one for CC(C)CN(C[C@@H](O)[C@H](Cc1ccccc1)NC(=O)O[C@H]1CO[C@H]2OCC[C@H]21)S(=O)(=O)c1ccc(N)cc1 .
true

Each compound tested received a call. Report the one for NS(=O)(=O)c1ccc(Nc2nc(OCC3CCCCC3)c3[nH]cnc3n2)cc1 .
true

Each compound tested received a call. Report the one for CCCCC(C=O)NC(=O)C(CC(C)C)NC(=O)OCc1ccccc1 (stereo not drawn) .
false

Each compound tested received a call. Report the one for CN[C@@H]1[C@@H](O)[C@@H](O[C@@H]2[C@@H](O)[C@H](O[C@H]3O[C@H](CN)[C@@H](O)[C@H](O)[C@@H]3O)[C@@H](N)C[C@@H]2NC(=O)[C@@H](O)CN)OC[C@]1(C)O .
false

Each compound tested received a call. Report the one for C[C@@H]1O[C@@H](O[C@H]2CC[C@@]3(C)[C@H](CC[C@@H]4[C@H]3C[C@@H](O)[C@]3(C)[C@@H](C5=CC(=O)OC5)CC[C@]43O)C2)C[C@H](O)[C@@H]1O[C@H]1C[C@H](O)[C@H](O[C@H]2C[C@H](O)[C@@H](O)[C@@H](C)O2)[C@H](C)O1 (stereo in doubt) .
true

Each compound tested received a call. Report the one for COc1cc2c(cc1Cc1cccc(Cl)c1F)c(=O)c(C(=O)O)cn2[C@H](CO)C(C)C .
true

Each compound tested received a call. Report the one for CCCCCOC(=O)Nc1nc(=O)n([C@@H]2O[C@H](C)[C@@H](O)C2O)cc1F (stereo partly drawn) .
true
